# credit: ChEMBL document CHEMBL4251731

Measured selectivity ratio values are reported for all entries that follow.
Assay: Selectivity index, ratio of GI50 for human 184B5 cells to GI50 for human MCF7 cells
Assay type: toxicity
Details: 184B5 cells versus MCF7 cells, read-out: RatioGI50
Lab note: record just the number, no unit beside it.

Check out these entries, answers already filled in.
COMPOUND	VALUE
O=C(NC(=[Se])Nc1ccc([Se][Se]c2ccc(NC(=[Se])NC(=O)c3ccc([N+](=O)[O-])cc3)cc2)cc1)c1ccc([N+](=O)[O-])cc1	253
O=C(NC(=[Se])Nc1ccc([Se][Se]c2ccc(NC(=[Se])NC(=O)c3ccccc3)cc2)cc1)c1ccccc1	1000
COc1cc(OC)cc(C(=O)NC(=[Se])Nc2ccc([Se][Se]c3ccc(NC(=[Se])NC(=O)c4cc(OC)cc(OC)c4)cc3)cc2)c1	69700
O=C(NC(=[Se])Nc1ccc([Se][Se]c2ccc(NC(=[Se])NC(=O)c3cnc4ccccc4c3)cc2)cc1)c1cnc2ccccc2c1	0.64
O=C(NC(=[Se])Nc1ccc([Se][Se]c2ccc(NC(=[Se])NC(=O)c3ccc(Cl)cc3)cc2)cc1)c1ccc(Cl)cc1	1660

Problem: Bench note: what selectivity ratio did "Cc1ccc(C(=O)NC(=[Se])Nc2ccc([Se][Se]c3ccc(NC(=[Se])NC(=O)c4ccc(C)cc4)cc3)cc2)cc1" show?
Result: 7010

Problem: Same question, "O=C(NC(=[Se])Nc1ccc([Se][Se]c2ccc(NC(=[Se])NC(=O)c3ccc(Cl)s3)cc2)cc1)c1ccc(Cl)s1" this time
Result: 0.59

Problem: Same question, "CSc1ccc(C(=O)NC(=[Se])Nc2ccc([Se][Se]c3ccc(NC(=[Se])NC(=O)c4ccc(SC)cc4)cc3)cc2)cc1" this time
Result: 2260

Problem: Same question, "O=C(NC(=[Se])Nc1ccc([Se][Se]c2ccc(NC(=[Se])NC(=O)c3cc4ccccc4s3)cc2)cc1)c1cc2ccccc2s1" this time
Result: 2.54

Problem: Same question, "O=C(NC(=[Se])Nc1ccc([Se][Se]c2ccc(NC(=[Se])NC(=O)c3cccs3)cc2)cc1)c1cccs1" this time
Result: 0.44

Problem: Same question, "O=C(NC(=[Se])Nc1ccc([Se][Se]c2ccc(NC(=[Se])NC(=O)c3cc(-c4ccccc4)nc4ccccc34)cc2)cc1)c1cc(-c2ccccc2)nc2ccccc12" this time
Result: 0.59

Problem: Same question, "COc1cc(C(=O)NC(=[Se])Nc2ccc([Se][Se]c3ccc(NC(=[Se])NC(=O)c4cc(OC)c(OC)c(OC)c4)cc3)cc2)cc(OC)c1OC" this time
Result: 0.7
